B1: ZBED2 (parent)
chain: FHLAPARAGHHPNQYATCRLCGRQ

- Variants of: B1
- experimentNotes: protein stability index of a GFP-peptide fusion (GPS, HEK-293T) (PSI 1-6); higher = more stable;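 also: lentivirally expressed fusions sorted by FACS into six bins by GFP to DsRed ratio, PSI derived from sequencing read proportions per bin multiplied by bin number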
- experimentalSetup: c terminus: a fixed tail appended
experimentalReadout: protein stability index

The variant identified as H2C registered its protein stability index at 1.66

The variant identified as P12W registered its protein stability index at 1.52

The variant identified as N13C registered its protein stability index at 2.97

The variant identified as L3K registered its protein stability index at 2.09

The variant identified as G22T registered its protein stability index at 2.82

The variant identified as G9V registered its protein stability index at 1.37

The variant identified as Q14P registered its protein stability index at 2.48

The variant identified as A8W registered its protein stability index at 3.08

The variant identified as A8F registered its protein stability index at 2.6

The variant identified as P5K registered its protein stability index at 1.83

The variant identified as Q24C registered its protein stability index at 1.84

The variant identified as G9A registered its protein stability index at 1.86

The variant identified as P5F registered its protein stability index at 2.03

The variant identified as Q24E registered its protein stability index at 2.12

The variant identified as L20D registered its protein stability index at 1.27

The variant identified as H11N registered its protein stability index at 1.39

The variant identified as G22L registered its protein stability index at 2.57

The variant identified as A4F registered its protein stability index at 2.14

The variant identified as N13K registered its protein stability index at 1.77

The variant identified as G9M registered its protein stability index at 2.27

The variant identified as H10Y registered its protein stability index at 1.7

The variant identified as R23Y registered its protein stability index at 1.83
